- assay: plasma protein binding, equilibrium dialysis
- Type: in vitro ADME, rat
- particulars: fraction unbound

- compound: "Cn1nc(C(F)(F)F)cc1CNC(=O)c1cc(-c2ccco2)ccc1Cl [Compound 15f]"
  rat fuplasma: 0.025
- compound: "O=C(NCc1cc(-c2ccccc2)no1)c1cc(-c2ccco2)ccc1Cl [Compound 15a]"
  rat fuplasma: 0.009
- compound: "O=C(NCc1cnc(-c2cccs2)s1)c1cc(-c2ccco2)ccc1Cl [Compound 15e]"
  rat fuplasma: 0.003
- compound: "Cn1nc(-c2cccs2)cc1CNC(=O)c1cc(-c2ccco2)ccc1Cl [Compound 19a]"
  rat fuplasma: 0.002
- compound: "O=C(NCc1noc(-c2ccccc2)n1)c1cc(-c2ccco2)ccc1Cl [Compound 15b]"
  rat fuplasma: 0.004
- compound: "Cn1nc(-c2cccnc2)cc1CNC(=O)c1cc(-c2ccco2)ccc1Cl [Compound 19c]"
  rat fuplasma: 0.015
- compound: "Cn1nc(-c2ccnn2C)cc1CNC(=O)c1cc(-c2ccco2)ccc1Cl [Compound 19d]"
  rat fuplasma: 0.041
- compound: "O=C(NCc1cnn2ccccc12)c1cc(-c2ccco2)ccc1Cl"
  rat fuplasma: 0.022
- compound: "Cn1nc(-c2ccccc2F)cc1CNC(=O)c1cc(-c2ccco2)ccc1Cl [Compound 19b]"
  rat fuplasma: 0.002

* * *

- test.system: human mGlu1 (Homo sapiens, UniProt Q13255)
- Construct: expressed in transfected cells; pcDNA5/TO)
- Sequence (Q13255 19-1194): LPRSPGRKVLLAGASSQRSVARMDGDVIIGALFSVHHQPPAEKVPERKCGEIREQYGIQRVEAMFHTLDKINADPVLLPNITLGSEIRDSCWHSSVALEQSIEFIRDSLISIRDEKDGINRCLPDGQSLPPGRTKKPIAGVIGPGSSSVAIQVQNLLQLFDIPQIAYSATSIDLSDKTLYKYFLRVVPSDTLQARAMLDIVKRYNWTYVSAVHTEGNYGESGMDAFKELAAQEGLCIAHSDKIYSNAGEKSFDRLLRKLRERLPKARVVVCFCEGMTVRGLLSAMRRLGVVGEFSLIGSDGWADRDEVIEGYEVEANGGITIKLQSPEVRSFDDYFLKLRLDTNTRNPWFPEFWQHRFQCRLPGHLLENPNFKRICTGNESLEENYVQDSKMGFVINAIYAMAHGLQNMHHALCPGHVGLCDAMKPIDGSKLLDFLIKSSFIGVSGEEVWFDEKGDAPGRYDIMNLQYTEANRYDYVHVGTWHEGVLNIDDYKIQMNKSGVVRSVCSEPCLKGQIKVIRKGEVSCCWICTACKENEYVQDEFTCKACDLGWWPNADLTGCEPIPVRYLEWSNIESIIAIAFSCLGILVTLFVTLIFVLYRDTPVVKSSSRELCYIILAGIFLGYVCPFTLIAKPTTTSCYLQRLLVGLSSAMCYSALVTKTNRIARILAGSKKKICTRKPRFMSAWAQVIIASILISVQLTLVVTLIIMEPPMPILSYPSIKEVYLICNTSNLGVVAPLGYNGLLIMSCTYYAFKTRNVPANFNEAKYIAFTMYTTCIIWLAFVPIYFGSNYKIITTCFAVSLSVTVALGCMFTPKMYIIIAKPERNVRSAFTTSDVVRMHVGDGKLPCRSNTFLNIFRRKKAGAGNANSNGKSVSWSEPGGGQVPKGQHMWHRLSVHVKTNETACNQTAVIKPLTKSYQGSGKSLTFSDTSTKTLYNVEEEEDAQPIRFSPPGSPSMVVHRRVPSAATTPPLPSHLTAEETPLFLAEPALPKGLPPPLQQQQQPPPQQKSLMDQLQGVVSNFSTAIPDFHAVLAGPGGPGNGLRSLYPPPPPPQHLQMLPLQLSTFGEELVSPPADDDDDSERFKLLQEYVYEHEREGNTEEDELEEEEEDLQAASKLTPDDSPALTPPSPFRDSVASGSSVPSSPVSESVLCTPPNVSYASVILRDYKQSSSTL
- assay: mGlu1 calcium mobilization (triple-add) PAM assay
- Assay type: cell-based
- particulars: PAM, calcium flux, EC20 glutamate
Entries get a class label from measured human mGlu1 Glumax. See ranges: bottom bin: < 60%; middle bin: ≥ 60% and < 80%; top bin: ≥ 80%

- compound: "O=C(NCc1cnn2ccccc12)c1cc(-c2ccco2)ccc1Cl [Compound 9k]"
  test.system: "human mGlu1 (Homo sapiens, UniProt Q13255)"
  category.label: "bottom bin"
- compound: "O=C(NCc1cc(-c2ccccc2)no1)c1cc(-c2ccco2)ccc1Cl [Compound 15a]"
  test.system: "human mGlu1 (Homo sapiens, UniProt Q13255)"
  category.label: "top bin"
- compound: "COc1ccc(C)cc1C(=O)NCc1cnn2ccccc12 [Compound 9b]"
  test.system: "human mGlu1 (Homo sapiens, UniProt Q13255)"
  category.label: "middle bin"
- compound: "Cn1nc(-c2ccccc2F)cc1CNC(=O)c1cc(-c2ccco2)ccc1Cl [Compound 19b]"
  test.system: "human mGlu1 (Homo sapiens, UniProt Q13255)"
  category.label: "top bin"
- compound: "O=C(NCc1cnc(-c2cccs2)s1)c1cc(-c2ccco2)ccc1Cl [Compound 15e]"
  test.system: "human mGlu1 (Homo sapiens, UniProt Q13255)"
  category.label: "middle bin"
- compound: "Cn1nc(-c2ccnn2C)cc1CNC(=O)c1cc(-c2ccco2)ccc1Cl [Compound 19d]"
  test.system: "human mGlu1 (Homo sapiens, UniProt Q13255)"
  category.label: "top bin"
- compound: "O=C(NCc1noc(-c2ccccc2)n1)c1cc(-c2ccco2)ccc1Cl [Compound 15b]"
  test.system: "human mGlu1 (Homo sapiens, UniProt Q13255)"
  category.label: "bottom bin"
- compound: "O=C(NCc1noc(C2CC2)n1)c1cc(-c2ccco2)ccc1Cl [Compound 15c]"
  test.system: "human mGlu1 (Homo sapiens, UniProt Q13255)"
  category.label: "bottom bin"

* * *

- assay: IV dog PK
- Format: in vivo
- particulars: male, beagle, plasma, 0.5 mg/kg IV, read-out: CLp
measurement.name: clearance (mL/min/kg)

- compound: "Cc1ccc2c(c1)C(=O)N(c1ccc(NC(=O)c3occc3C)c(F)c1)C2=O [Compound 4, reference compound]"
  u: "mL/min/kg"
  observed.measurement: 14

* * *

- assay: plasma protein binding
- Format: in vitro ADME
- particulars: dog, pH 7.4, read-out: fu (plasma), dog
measurement.name: fraction unbound at 4 h, 5 μM

- compound: "Cn1nc(-c2ccnn2C)cc1CNC(=O)c1cc(-c2ccco2)ccc1Cl [Compound 19d]"
  measurement.name: "fraction unbound at 4 h, 5 μM"
  observed.measurement: 0.039

* * *

- test.system: human mGlu1 (Homo sapiens)
- Construct: expressed in transfected cells; pcDNA5/TO)
- assay: mGlu1 calcium mobilization (triple-add) PAM assay
- Assay type: cell-based
- particulars: PAM, calcium flux, EC20 glutamate
Entries get a class label from measured EC50. See ranges: low value: < 200 nM; medium value: ≥ 200 nM and < 700 nM; high value: ≥ 700 nM

- compound: "O=C(NCc1cnn2ccccc12)c1cc(-c2ccsc2)ccc1Cl [Compound 9h]"
  category.label: "medium value"
- compound: "O=C(NCc1cc(-c2ccccc2)no1)c1cc(-c2ccco2)ccc1Cl [Compound 15a]"
  category.label: "medium value"
- compound: "Cc1ccc(Cl)cc1C(=O)NCc1cnn2ccccc12 [Compound 9c]"
  category.label: "high value"
- compound: "O=C(NCc1cnn2ccccc12)c1cc(-c2nccs2)ccc1Cl [Compound 9i]"
  category.label: "high value"
- compound: "O=C(NCc1cnn2ccccc12)c1cc(Cl)ccc1Cl [Compound 9d]"
  category.label: "high value"
- compound: "Cn1nc(-c2ccnn2C)cc1CNC(=O)c1cc(-c2ccco2)ccc1Cl [Compound 19d]"
  category.label: "low value"
- compound: "O=C(NCc1cnc(-c2cccs2)s1)c1cc(-c2ccco2)ccc1Cl [Compound 15e]"
  category.label: "low value"
- compound: "O=C(NCc1noc(-c2ccccc2)n1)c1cc(-c2ccco2)ccc1Cl [Compound 15b]"
  category.label: "low value"
- compound: "COc1ccc(OC)c(C(=O)NCc2cnn3ccccc23)c1 [Compound 9a]"
  category.label: "high value"
- compound: "COc1ccc(C)cc1C(=O)NCc1cnn2ccccc12 [Compound 9b]"
  category.label: "high value"
- compound: "O=C(NCc1cnn2ccccc12)c1cc(-c2cccs2)ccc1Cl [Compound 9g]"
  category.label: "medium value"
- compound: "Cn1nc(-c2cccnc2)cc1CNC(=O)c1cc(-c2ccco2)ccc1Cl [Compound 19c]"
  category.label: "low value"
- compound: "COc1ccc(Cl)cc1C(=O)NCc1cnn2ccccc12 [Compound 6]"
  category.label: "high value"
- compound: "O=C(NCc1cnn2ccccc12)c1cc(-c2ccco2)ccc1Cl [Compound 9k]"
  category.label: "low value"
- compound: "O=C(NCc1cnn2ccccc12)c1cc(-c2ccccc2)ccc1Cl [Compound 9f]"
  category.label: "medium value"
- compound: "Cn1nc(C(F)(F)F)cc1CNC(=O)c1cc(-c2ccco2)ccc1Cl [Compound 15f]"
  category.label: "low value"
- compound: "O=C(NCc1noc(C2CC2)n1)c1cc(-c2ccco2)ccc1Cl [Compound 15c]"
  category.label: "high value"
- compound: "Cn1nc(-c2cccs2)cc1CNC(=O)c1cc(-c2ccco2)ccc1Cl [Compound 19a]"
  category.label: "low value"

* * *

- assay: plasma protein binding
- Format: in vitro ADME
- particulars: mouse, pH 7.4, read-out: fu (plasma), mouse

- molecule: "Cn1nc(-c2ccnn2C)cc1CNC(=O)c1cc(-c2ccco2)ccc1Cl [Compound 19d]"
  fraction unbound at 4 h, 5 μM: 0.056

* * *

- assay: satellite PK for NOR
- Type: in vivo
- particulars: brain; rat, 10 mg/kg PO, 210 min postdose; read-out: free brain concentration

- molecule: "Cn1nc(-c2ccnn2C)cc1CNC(=O)c1cc(-c2ccco2)ccc1Cl [Compound 19d]"
  concentration at 210 min, nM: 73

* * *

- assay: intrinsic clearance, predicted hepatic clearance
- Assay type: in vitro ADME, rat
- particulars: in vitro predicted hepatic clearance
Label true when CLhep, rat < 60 mL/min/kg; otherwise false.

- compound: "O=C(NCc1cnn2ccccc12)c1cc(-c2ccco2)ccc1Cl"
  category.label: "false"
- compound: "Cn1nc(-c2cccs2)cc1CNC(=O)c1cc(-c2ccco2)ccc1Cl [Compound 19a]"
  category.label: "true"
- compound: "Cn1nc(-c2cccnc2)cc1CNC(=O)c1cc(-c2ccco2)ccc1Cl [Compound 19c]"
  category.label: "true"
- compound: "Cn1nc(-c2ccccc2F)cc1CNC(=O)c1cc(-c2ccco2)ccc1Cl [Compound 19b]"
  category.label: "true"
- compound: "Cn1nc(C(F)(F)F)cc1CNC(=O)c1cc(-c2ccco2)ccc1Cl [Compound 15f]"
  category.label: "true"
- compound: "O=C(NCc1cnc(-c2cccs2)s1)c1cc(-c2ccco2)ccc1Cl [Compound 15e]"
  category.label: "true"

* * *

- assay: brain exposure in rat AHL Cmax versus Ctrough study
- Type: in vivo
- particulars: Sprague-Dawley, brain, oral, 10 mg/kg, pretreatment time 6.5 hr, read-out: Brain Unbound @EOT
measurement.name: concentration at 6.5 h (nM)

- compound: "Cn1nc(-c2ccnn2C)cc1CNC(=O)c1cc(-c2ccco2)ccc1Cl [Compound 19d]"
  u: "nM"
  observed.measurement: 44

* * *

- assay: IV dog PK
- Format: in vivo
- particulars: 0.5 mg/kg IV, plasma, read-out: C0 exposure, total

- compound: "Cn1nc(-c2ccnn2C)cc1CNC(=O)c1cc(-c2ccco2)ccc1Cl [Compound 19d]"
  C0 [nM]: 2050
